In this section, each of the binders is paired with its reported ELISA PD-L1 Fc (RSU).
# target: T1, recombinant biotinylated PD-L1 (rhPD-L1/Fc Chimera, R&D Systems 156-B7) (human, UniProt Q9NZQ7 19-238, biotinylated (sites not given))
# T1 construct: Bought Fc chimera; also called human PD-L1
# T1 sequence (Q9NZQ7 19-238, change not shown): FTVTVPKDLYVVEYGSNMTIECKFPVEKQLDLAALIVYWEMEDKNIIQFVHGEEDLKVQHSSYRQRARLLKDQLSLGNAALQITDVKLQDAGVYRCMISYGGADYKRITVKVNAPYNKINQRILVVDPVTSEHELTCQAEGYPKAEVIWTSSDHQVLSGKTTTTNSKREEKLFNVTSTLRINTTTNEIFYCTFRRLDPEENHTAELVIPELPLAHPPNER
# assay-remarks: ELISA, lysate on plate-bound antigen
Could you give me the number in RSU? Just the number is fine.

Known ELISA PD-L1 Fc (RSU) results, listed for orientation:
INSERT INTO results (binder, value_type, val) VALUES
  ('ISOP121AR5P1E11 (designed binder, not shown: small tags and cut ends, FN3 domain; E. coli lysate in the ELISA) LPAPKNLVVSRVTEDSARLSWSVQTSFVFDSFLIQYQESEKVGEAIVLTVPGSERSYDLTGLKPGTEYTVSIYGVPLWHGFDSNPLSAIFTT', 'ELISA PD-L1 Fc (RSU)', '1.84e+06'),
  ('ISOP121BR5P1C9 (designed binder, not shown: small tags and cut ends, FN3 domain; E. coli lysate in the ELISA) LPAPKNLVVSRVTEDSARLSWIWPDKHEFFDSFLIQYQESEKVGEAIVLTVPGSERSYDLTGLKPGTEYTVSIYGVYDRKYANWSSNPLSAIFTT', 'ELISA PD-L1 Fc (RSU)', 226000),
  ('ISOP194AR9P1C5 (designed binder, not shown: small tags and cut ends, FN3 domain; E. coli lysate in the ELISA) LPAPKNLVVSRVTEDSARLSWLRDFNGRAFFDSFLIQYQESEKVGEAIVLTVPGSERSYDPTGLKPGTEYTVSIYGVFITWIHVRSNPLSAIFTT', 'ELISA PD-L1 Fc (RSU)', '4.37e+06'),
  ('ISOP121AR5P1F2 (designed binder, not shown: small tags and cut ends, FN3 domain; E. coli lysate in the ELISA) LPAPKNLVISRVTEDSARLSWGWSELIATHFDSFLIQYQESEKVGEAIVLTVPGSERSYDLTGLKPGTEYTVSIYGVYNRKVNFYSNPLSAIFTT', 'ELISA PD-L1 Fc (RSU)', 51000),
  ('ISOP121BR5P1C5 (designed binder, not shown: small tags and cut ends, FN3 domain; E. coli lysate in the ELISA) LPAPKNLVVSRVTEDSARLSWFRLRIVQTFDSFLIQYQESEKVGEAIVLTVPGSERSYDLTGLKPGTEYTVSIYGVITVVELLQQSNPLSAIFTT', 'ELISA PD-L1 Fc (RSU)', 11700);

Entry ISOP194ER9P1A3 (designed binder, not shown: small tags and cut ends, FN3 domain; E. coli lysate in the ELISA) LPAPKNLVVSRVTEDSARLSWTAPDAAFDSFRIAYYETMVSGEAIVLTVPGSERSYDLTGLKPGTEYAVIIKGVKGGMVSWPLSAIFTT : reported ELISA PD-L1 Fc (RSU) = ?
2.36e+06

Recorded ELISA PD-L1 Fc (RSU) for ISOP194ER9P1A11 (designed binder, not shown: small tags and cut ends, FN3 domain; E. coli lysate in the ELISA) LPAPKNLVVSRVTEDSARLSWTAPDAAFDSFRIAYYETMVSGEAIVLTVPGSERSYDLTGLKPGTEYAVIIKGVKGGKPSWPLSAIFTT , please?
4.35e+06

Field request: ELISA PD-L1 Fc (RSU) | item: ISOP121BR5P1E9 (designed binder, not shown: small tags and cut ends, FN3 domain; E. coli lysate in the ELISA) LPAPKNLVVSRVTEDSARLSWDSYRDYFDSFLIQYQESEKVGEAIVLTVPGSERSYDLTGLKPGTEYTVSIYGVYSRKHVVFVQSNPLSAIFTT
42000

Value lookup for ELISA PD-L1 Fc (RSU); key = ISOP194GR9P1E9 (designed binder, not shown: small tags and cut ends, FN3 domain; E. coli lysate in the ELISA) LPAPKNLVVSRVTEDSARLSWTAPDAAFDSFHIRYHEYDKNGEAIQLYVPGSERSYDLTGLKPGTEYGVFIWGVKGGLKSKPLWAWFTT
2.82e+06
